target: P-gp (ABCB1) (Homo sapiens); test: Substrate activity at p-gp in human Caco2 cells assessed as ratio of apparent permeability across basolateral to apical over apical to basolateral side at 100 uM after 120 mins by UV-Vis spectroscopy; assay type: ADME, cell-based; settings: Caco-2
Lab note: cut-off is 4. Strictly less in efflux ratio at 2 h, 100 µM is True. Exactly 4 or more is False.

1) COc1cc2c(cc1OC)CN(Cc1ccc(-c3ccc(OCCCOc4nonc4Oc4ccccc4)cc3)cc1)CC2 : True
2) COc1cc2c(cc1OC)CN(Cc1ccc(-c3ccc(OCCCOc4nonc4Sc4ccccc4)cc3)cc1)CC2 : False
3) COc1cc2c(cc1OC)CN(Cc1ccc(-c3ccc(OCCOc4nonc4[S+]([O-])c4ccccc4)cc3)cc1)CC2 (centres undefined) : False
4) COc1cc2c(cc1OC)CN(Cc1ccc(-c3ccc(OCCCOc4nonc4[S+]([O-])c4ccccc4)cc3)cc1)CC2 (centres undefined) : True
5) COc1cc2c(cc1OC)CN(Cc1ccc(-c3ccc(OCCCOc4nonc4-c4ccccc4)cc3)cc1)CC2 : False
6) COc1cc2c(cc1OC)CN(Cc1ccc(-c3ccc(OCCOc4nonc4OCc4ccccc4)cc3)cc1)CC2 : False
7) COc1cc2c(cc1OC)CN(Cc1ccc(-c3ccc(OCCCOc4nonc4OC)cc3)cc1)CC2 : True
8) COc1cc2c(cc1OC)CN(Cc1ccc(-c3ccc(OCCCOc4nonc4S(=O)(=O)c4ccccc4)cc3)cc1)CC2 : True

---

biological target: UniProt:P08183; assay: Inhibition of MDR1 (unknown origin) expressed in MDCK cells assessed as decrease in calcein-AM transport after 30 mins by fluorescence assay
pEC50: −log10 of the molar value.
Reported Metric: pEC50

1. COc1cc2c(cc1OC)CN(Cc1ccc(-c3ccc(OCCCOc4nonc4[S+]([O-])c4ccccc4)cc3)cc1)CC2 (stereo not given) : 8.89
2. COc1cc2c(cc1OC)CN(Cc1ccc(-c3ccc(OCCCOc4nonc4OCc4ccccc4)cc3)cc1)CC2 : 9.01
3. COc1cc2c(cc1OC)CN(Cc1ccc(-c3ccc(OCCCOc4nonc4S(=O)(=O)c4ccccc4)cc3)cc1)CC2 : 6.42
4. COc1cc2c(cc1OC)CN(Cc1ccc(-c3ccc(OCCCOc4nonc4C#N)cc3)cc1)CC2 : 5.98
5. COc1cc2c(cc1OC)CN(Cc1ccc(-c3ccc(OCCCOc4nonc4-c4ccccc4)cc3)cc1)CC2 : 5.48

---

molecular target: ATP-dependent translocase ABCB1 (Homo sapiens); assay: Activation of MDR1 (unknown origin) ATPase activity expressed in MDCK cells assessed as decrease in ATP level after 2 hrs by ATPlite assay; type: cell-based
Sequence (P08183 whole entry): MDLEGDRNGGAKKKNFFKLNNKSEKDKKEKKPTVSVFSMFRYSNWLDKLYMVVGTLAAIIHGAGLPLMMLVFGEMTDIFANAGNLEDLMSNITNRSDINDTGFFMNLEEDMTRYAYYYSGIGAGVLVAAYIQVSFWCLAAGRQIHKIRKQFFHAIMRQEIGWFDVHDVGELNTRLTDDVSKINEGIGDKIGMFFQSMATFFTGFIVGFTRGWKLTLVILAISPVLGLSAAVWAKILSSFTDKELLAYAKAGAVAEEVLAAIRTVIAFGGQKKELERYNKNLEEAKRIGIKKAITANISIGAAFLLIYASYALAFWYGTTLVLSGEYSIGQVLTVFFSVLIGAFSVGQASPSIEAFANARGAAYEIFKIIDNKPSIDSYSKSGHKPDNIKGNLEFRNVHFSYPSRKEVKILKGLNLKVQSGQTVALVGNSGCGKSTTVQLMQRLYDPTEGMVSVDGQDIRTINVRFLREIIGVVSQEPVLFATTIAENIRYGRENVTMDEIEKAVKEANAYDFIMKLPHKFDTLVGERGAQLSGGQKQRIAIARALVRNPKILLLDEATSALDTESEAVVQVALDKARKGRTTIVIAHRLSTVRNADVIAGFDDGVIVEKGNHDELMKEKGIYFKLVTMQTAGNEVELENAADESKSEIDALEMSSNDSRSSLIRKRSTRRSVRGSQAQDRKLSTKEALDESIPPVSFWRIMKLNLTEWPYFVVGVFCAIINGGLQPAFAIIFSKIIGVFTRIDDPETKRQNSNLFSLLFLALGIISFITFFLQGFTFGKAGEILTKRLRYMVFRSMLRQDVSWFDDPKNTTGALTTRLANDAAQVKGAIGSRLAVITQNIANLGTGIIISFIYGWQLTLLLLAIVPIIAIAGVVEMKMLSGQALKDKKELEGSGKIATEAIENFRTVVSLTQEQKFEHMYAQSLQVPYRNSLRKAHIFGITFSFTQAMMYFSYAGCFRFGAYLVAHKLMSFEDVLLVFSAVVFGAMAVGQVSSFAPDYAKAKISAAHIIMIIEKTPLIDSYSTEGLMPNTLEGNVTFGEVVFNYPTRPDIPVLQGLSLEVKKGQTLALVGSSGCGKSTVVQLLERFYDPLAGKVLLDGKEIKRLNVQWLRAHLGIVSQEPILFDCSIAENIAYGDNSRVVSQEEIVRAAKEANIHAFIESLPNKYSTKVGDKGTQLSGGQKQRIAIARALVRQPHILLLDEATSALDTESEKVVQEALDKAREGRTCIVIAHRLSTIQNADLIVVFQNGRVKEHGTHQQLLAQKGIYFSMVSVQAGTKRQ
Reported Metric: Activity

1) COc1cc2c(cc1OC)CN(Cc1ccc(-c3ccc(OCCCOc4nonc4S(=O)(=O)c4ccccc4)cc3)cc1)CC2 : Not Active
2) COc1cc2c(cc1OC)CN(Cc1ccc(-c3ccc(OCCCOc4nonc4C)cc3)cc1)CC2 : Not Active
3) COc1cc2c(cc1OC)CN(Cc1ccc(-c3ccc(OCCOc4nonc4OCc4ccccc4)cc3)cc1)CC2 : Not Active
4) COc1cc2c(cc1OC)CN(Cc1ccc(-c3ccc(OCCCCOc4nonc4OC)cc3)cc1)CC2 : Not Active

---

EC50 reference
biological target: Broad substrate specificity ATP-binding cassette transporter ABCG2 (Homo sapiens, UniProt Q9UNQ0); assay: Inhibition of BCRP (unknown origin)
Sequence (Q9UNQ0 whole entry): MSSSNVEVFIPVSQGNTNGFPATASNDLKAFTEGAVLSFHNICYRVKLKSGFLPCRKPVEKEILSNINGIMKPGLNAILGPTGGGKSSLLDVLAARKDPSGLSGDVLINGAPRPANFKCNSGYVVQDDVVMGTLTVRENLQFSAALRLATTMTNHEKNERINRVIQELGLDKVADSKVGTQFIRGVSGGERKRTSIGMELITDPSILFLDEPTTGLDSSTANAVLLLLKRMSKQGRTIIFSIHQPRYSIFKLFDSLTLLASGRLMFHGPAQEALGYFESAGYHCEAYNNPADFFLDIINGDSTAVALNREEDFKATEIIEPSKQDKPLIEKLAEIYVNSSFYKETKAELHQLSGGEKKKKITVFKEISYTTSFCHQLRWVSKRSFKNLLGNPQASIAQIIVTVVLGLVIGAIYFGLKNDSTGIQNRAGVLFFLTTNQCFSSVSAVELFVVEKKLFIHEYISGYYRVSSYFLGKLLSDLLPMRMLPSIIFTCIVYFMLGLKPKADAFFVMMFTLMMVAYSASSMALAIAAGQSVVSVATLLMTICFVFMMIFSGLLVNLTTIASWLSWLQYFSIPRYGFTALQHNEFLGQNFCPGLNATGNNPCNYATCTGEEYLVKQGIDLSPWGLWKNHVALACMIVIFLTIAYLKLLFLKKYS
Reported Metric: EC50

1. COc1cc2c(cc1OC)CN(Cc1ccc(-c3ccc(OCCOc4nonc4OC)cc3)cc1)CC2 : > 100 µM
2. COc1cc2c(cc1OC)CN(Cc1ccc(-c3ccc(OCCCOc4nonc4[S+]([O-])c4ccccc4)cc3)cc1)CC2 (centres undefined) : > 100 µM
3. COc1cc2c(cc1OC)CN(Cc1ccc(-c3ccc(OCCCOc4nonc4OCc4ccccc4)cc3)cc1)CC2 : > 100 µM
4. COc1cc2c(cc1OC)CN(Cc1ccc(-c3ccc(OCCOc4nonc4[S+]([O-])c4ccccc4)cc3)cc1)CC2 (centres undefined) : > 100 µM
